Hi there, I'd appreciate the recorded pIC50 for every entry that follows.
test system: SK-OV-3; assay: Antitumor activity of compound for 96-h exposure in SKOV-3 human ovarian cell line; assay type: functional, cell-based; conditions: SK-OV-3, 96 h
Schema: pIC50 number; meaning minus log10 of the concentration expressed in molar units.

Input: Determine its reported pIC50: Oc1ccc(-c2nc3ccc(-c4ccc5nc(-c6ccc(O)cc6)[nH]c5c4)cc3[nH]2)cc1
Output: 4.80

Input: Determine its reported pIC50: CN(C)CCCOc1ccc(-c2nc3cc(-c4ccc5nc(-c6ccc(OCCCN(C)C)cc6)[nH]c5c4)ccc3[nH]2)cc1
Output: 6.43

Input: Determine its reported pIC50: COc1ccc(-c2nc3cc(-c4ccc5[nH]c(-c6ccc(OC)cc6)nc5c4)ccc3[nH]2)cc1
Output: 4.78

Recorded values, source ChEMBL document CHEMBL1134602.
